measured target: PI3Kγ (Homo sapiens, UniProt P48736)
Sequence (P48736 whole entry, species assumed): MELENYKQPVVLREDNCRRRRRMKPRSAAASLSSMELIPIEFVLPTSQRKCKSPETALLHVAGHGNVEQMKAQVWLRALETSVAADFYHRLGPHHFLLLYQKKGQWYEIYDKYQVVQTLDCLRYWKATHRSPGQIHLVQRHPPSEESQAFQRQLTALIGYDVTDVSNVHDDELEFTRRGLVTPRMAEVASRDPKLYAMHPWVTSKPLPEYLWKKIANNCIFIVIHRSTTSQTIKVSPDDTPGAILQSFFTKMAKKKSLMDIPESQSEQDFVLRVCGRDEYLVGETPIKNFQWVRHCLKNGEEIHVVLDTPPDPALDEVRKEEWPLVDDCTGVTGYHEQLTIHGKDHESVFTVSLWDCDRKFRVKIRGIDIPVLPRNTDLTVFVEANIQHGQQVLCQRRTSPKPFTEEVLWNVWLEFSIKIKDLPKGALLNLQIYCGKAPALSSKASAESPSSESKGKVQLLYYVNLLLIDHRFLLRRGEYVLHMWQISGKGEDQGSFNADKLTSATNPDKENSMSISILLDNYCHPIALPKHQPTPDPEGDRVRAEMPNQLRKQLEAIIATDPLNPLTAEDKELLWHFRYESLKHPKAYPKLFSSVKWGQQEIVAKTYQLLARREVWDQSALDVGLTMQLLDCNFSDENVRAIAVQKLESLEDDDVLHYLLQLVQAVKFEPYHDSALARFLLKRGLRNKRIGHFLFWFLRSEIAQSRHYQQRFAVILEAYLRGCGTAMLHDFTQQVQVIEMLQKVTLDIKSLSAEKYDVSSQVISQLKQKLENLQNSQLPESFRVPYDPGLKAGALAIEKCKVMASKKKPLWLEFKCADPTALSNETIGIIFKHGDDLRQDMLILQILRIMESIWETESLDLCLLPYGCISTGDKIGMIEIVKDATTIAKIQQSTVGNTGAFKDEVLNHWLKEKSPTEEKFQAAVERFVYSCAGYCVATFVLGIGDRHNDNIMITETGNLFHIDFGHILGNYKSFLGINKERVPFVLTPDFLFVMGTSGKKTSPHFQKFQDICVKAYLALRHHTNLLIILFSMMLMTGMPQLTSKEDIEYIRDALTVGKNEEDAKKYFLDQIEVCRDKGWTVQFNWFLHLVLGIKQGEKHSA
assay info: PI3Kγ inhibitory activity (PI3-kinase HTRF assay, inhibition ratio)
Type: biochemical
setup conditions: 0.5 h, compound at 10 μmol/L; read-out: PI3Kg Inhibition Ratio % (10 μM)
parameter: inhibition at 10 µM

Some compounds with known inhibition at 10 µM results, for comparison:
CC(CO)NC(=O)c1ccccc1NC(=O)Nc1nc2c(s1)CN(c1ccc(F)cn1)CC2 (stereo not drawn) | ≥ 95%
COc1cc(N2CCc3nc(NC(=O)Nc4ccccc4C(=O)NN4CCN(C)CC4)sc3C2)nc(OC)n1 | ≥ 95%

Turning now to a further record.
Given item "COc1cc(N2CCc3nc(NC(=O)Nc4ccccc4CC(C)C)sc3C2)nc(OC)n1" , the value recorded as its inhibition at 10 µM is ≥ 95%

====

measured target: hERG channel (IKr) (Homo sapiens, UniProt Q12809)
Construct: expressed in transfected cells; host or cells: HEK293
Sequence (Q12809 whole entry): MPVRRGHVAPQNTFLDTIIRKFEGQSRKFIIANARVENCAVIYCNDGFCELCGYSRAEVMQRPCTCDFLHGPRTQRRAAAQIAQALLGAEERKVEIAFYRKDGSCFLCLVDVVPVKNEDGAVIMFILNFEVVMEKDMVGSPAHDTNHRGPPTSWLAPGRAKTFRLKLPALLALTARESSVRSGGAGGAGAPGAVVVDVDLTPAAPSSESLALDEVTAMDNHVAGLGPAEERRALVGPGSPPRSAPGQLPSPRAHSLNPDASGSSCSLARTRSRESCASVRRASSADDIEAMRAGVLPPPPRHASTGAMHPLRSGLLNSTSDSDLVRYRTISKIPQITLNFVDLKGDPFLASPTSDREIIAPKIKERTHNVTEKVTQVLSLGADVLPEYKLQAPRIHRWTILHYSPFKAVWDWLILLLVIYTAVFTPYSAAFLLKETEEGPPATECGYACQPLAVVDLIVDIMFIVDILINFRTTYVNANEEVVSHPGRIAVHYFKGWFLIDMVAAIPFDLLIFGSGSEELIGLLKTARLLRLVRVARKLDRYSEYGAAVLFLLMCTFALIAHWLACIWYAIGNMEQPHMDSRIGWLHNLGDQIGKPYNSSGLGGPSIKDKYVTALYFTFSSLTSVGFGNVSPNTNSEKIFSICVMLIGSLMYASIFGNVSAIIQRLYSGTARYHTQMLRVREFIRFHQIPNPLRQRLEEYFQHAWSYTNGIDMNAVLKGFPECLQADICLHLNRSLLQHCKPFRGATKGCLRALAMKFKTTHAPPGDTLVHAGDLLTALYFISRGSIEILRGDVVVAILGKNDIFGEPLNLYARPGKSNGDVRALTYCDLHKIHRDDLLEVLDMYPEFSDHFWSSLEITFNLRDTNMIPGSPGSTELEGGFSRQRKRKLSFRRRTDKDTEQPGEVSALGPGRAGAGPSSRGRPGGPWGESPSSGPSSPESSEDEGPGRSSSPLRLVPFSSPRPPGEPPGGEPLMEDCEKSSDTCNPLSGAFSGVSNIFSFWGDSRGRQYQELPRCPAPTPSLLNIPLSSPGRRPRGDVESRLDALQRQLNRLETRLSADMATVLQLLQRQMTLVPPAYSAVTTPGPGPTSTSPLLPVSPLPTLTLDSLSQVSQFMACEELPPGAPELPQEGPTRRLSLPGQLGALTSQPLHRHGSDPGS
assay info: hERG test (whole-cell patch-clamp, IKr in HEK293 cells)
Assay type: cell-based
setup conditions: human, HEK293 cells expressing hERG channel, pH 7.4, inhibition of maximum tail current (IKr), compound 1 μM
parameter: inhibition at 10 min, 1 µM (%)
Give bare numbers, in %.

Known results for molecules:
COc1cc(N2CCc3nc(NC(=O)Nc4ccccc4C(=O)NCC(C)(C)O)sc3C2)nc(OC)n1 | 9.2
COc1cc(N2CCc3nc(NC(=O)Nc4ccccc4C(=O)NC4CCOCC4)sc3C2)nc(OC)n1 | 6.7

Count: 5. Required value per item: inhibition at 10 min, 1 µM.
1. COc1cc(N2CCc3nc(NC(=O)Nc4ccccc4C(=O)NC4CC4)sc3C2)nc(OC)n1
2. COc1cc(N2CCc3nc(NC(=O)Nc4ccccc4C(=O)NC(C)C)sc3C2)cc(OC)n1
3. COc1cc(N2CCc3nc(NC(=O)NC4=C(C(=O)NC(C)C)CCC4)sc3C2)nc(OC)n1
4. COc1cc(N2CCc3nc(NC(=O)Nc4ccccc4C(=O)N[C@H](C)CO)sc3C2)nc(OC)n1
5. CC(C)NC(=O)c1ccccc1NC(=O)Nc1nc2c(s1)CN(c1cncc(S(C)(=O)=O)c1)CC2

Output line:
1. 9.3
2. 2.7
3. 8.7
4. 8.8
5. 1.8

Parameters: items (list). Returns: inhibition at 10 min, 1 µM for each item.
1. Cc1nc(NC(=O)Nc2ccccc2C(=O)NC(C)C)sc1-c1ccc(S(C)(=O)=O)c(F)c1
2. COc1nccc(N2CCc3nc(NC(=O)Nc4ccccc4C(=O)NC(C)C)sc3C2)n1

Output line:
1. 0.6
2. 3.7

====

Tested on: AKT phosphorylation
assay info: AKT phosphorylation inhibitory activity in MCP-1 stimulated THP-1 cells (sandwich ELISA)
Type: cell-based, Human
setup conditions: Homo sapiens, compound at 1 μmol/L, MCP-1 stimulation, read-out: AKT phosphorylation inhibition ratio
Consider the following compounds; for each one, report its inhibition at 1 µM.

COc1cc(N2CCc3nc(NC(=O)Nc4ccccc4C(=O)NC4CCOCC4)sc3C2)nc(OC)n1 [Compound I-203] | ≥ 95%
COc1cc(N2CCc3nc(NC(=O)Nc4ccccc4C(=O)NC(C)C#N)sc3C2)nc(OC)n1 (stereo not drawn) [Compound I-159] | ≥ 95%

Now consider a different compound.
GET /value?item= COc1cc(N2CCc3nc(NC(=O)Nc4cn(C)nc4C(=O)NCC#N)sc3C2)nc(OC)n1 [Compound I-152] &field=inhibition at 1 µM returns ≥ 95%

Attribution: patent US20120071475A1
